Test system: CAKI-1
PROCEDURE SUMMARY: NCI tumour cell line growth inhibition, 48 h
Active and inactive are the calls of the source. Rule as the data show it: active = GI50 up to about 1.1 µM and inactive = higher.
Possible outcomes: True = active, False = inactive

>  <MOLECULE>
Cc1nc(-c2cc3ccccc3oc2=O)cs1

>  <TARGET OR SYSTEM>
CAKI-1

>  <GROUP>
False

$$$$
>  <MOLECULE>
CC(=O)NC(CCCCNCc1ccccc1)C(=O)NCc1ccccc1 (stereo unspecified)

>  <TARGET OR SYSTEM>
CAKI-1

>  <GROUP>
False

$$$$
>  <MOLECULE>
Oc1cccnc1/C=N/OCc1ccccc1

>  <TARGET OR SYSTEM>
CAKI-1

>  <GROUP>
False

$$$$
>  <MOLECULE>
CSc1nc(=O)cnn1C

>  <TARGET OR SYSTEM>
CAKI-1

>  <GROUP>
False

$$$$
>  <MOLECULE>
C=CCOc1ccc(C2C(C(=O)OC)C(=O)CC(O)(c3ccccc3)C2C(=O)OC)cc1OC (stereo unspecified)

>  <TARGET OR SYSTEM>
CAKI-1

>  <GROUP>
False

$$$$
>  <MOLECULE>
C/C(=N\NC(=S)N1CCN(c2ccccn2)CC1)c1ccccn1

>  <TARGET OR SYSTEM>
CAKI-1

>  <GROUP>
True

$$$$
